Task for the reader: assign each of the following binders its reported fold over parental (CHO WT).
target: T1, Full length Mouse TfR on CHO cells (mouse, UniProt Q62351 1-763); assay: FACS MFI, supernatant
T1 construct: also called CHO + muTfR
T1 sequence (Q62351 whole entry): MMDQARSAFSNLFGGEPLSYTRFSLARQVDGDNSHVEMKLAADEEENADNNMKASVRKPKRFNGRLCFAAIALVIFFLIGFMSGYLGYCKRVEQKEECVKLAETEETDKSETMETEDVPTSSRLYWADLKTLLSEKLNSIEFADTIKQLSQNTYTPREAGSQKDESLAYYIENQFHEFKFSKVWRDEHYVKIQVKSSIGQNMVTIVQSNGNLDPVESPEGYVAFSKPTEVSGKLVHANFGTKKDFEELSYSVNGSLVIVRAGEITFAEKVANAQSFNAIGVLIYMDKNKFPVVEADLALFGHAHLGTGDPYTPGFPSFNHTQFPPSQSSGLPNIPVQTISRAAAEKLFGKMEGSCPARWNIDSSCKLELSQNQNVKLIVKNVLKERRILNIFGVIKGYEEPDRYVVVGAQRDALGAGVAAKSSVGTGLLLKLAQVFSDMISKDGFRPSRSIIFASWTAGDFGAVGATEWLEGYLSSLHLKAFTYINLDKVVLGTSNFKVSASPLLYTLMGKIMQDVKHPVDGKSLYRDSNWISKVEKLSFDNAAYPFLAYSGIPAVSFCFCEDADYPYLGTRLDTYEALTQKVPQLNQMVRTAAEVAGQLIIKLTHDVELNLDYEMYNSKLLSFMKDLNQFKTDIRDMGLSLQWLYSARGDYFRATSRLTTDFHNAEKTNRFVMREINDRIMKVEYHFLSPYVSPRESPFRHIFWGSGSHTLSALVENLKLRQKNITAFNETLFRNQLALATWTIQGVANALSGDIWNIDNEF
Answers are plain numbers, in fold.

Example binders with recorded fold over parental (CHO WT):
[
  {
    "Binder": "TfR10 (mouse hybridoma antibody) (antibody, V domains shown, mouse IgG in hybridoma supernatant) VH: QVQLQQSGPELVKPGASVKMSCKASGYTFTSYYIHWVKQRPGQGLEWIGWIYPGDGNTNYNEKFKGKTTLTADKSSSTAYMLLSSLTSEDSAIYFCARDGSIPFAYWGQGTLVTVSA VL: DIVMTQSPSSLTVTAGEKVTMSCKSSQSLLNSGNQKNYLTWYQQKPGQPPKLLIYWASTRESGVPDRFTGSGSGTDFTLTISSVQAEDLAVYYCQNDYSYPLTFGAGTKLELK",
    "Value Units": "fold",
    "fold over parental (CHO WT)": 1
  },
  {
    "Binder": "TfR32 (mouse hybridoma antibody) (antibody, V domains shown, mouse IgG in hybridoma supernatant) VH: QVQLQQSGADLVRPGTSVKVSCKASGNAFSNYLIEWVKQRPGQGLEWIGVINPGSGETNYNEKFKGKATLTADKSSSTAYMQLSSLTSDDSAVYFCAIRYDGPLLDHWGQGTSVTVSS VL: SIVMTQTPKFLLVSAGDRVTITCKASQSVSNDVAWFQQKPGQSPKLLIYYASNRYTGVPDRFTGSGYGTDFTFTIRNVQAEDLAVYFCQQDYISPTFGAGTKLELK",
    "Value Units": "fold",
    "fold over parental (CHO WT)": 1
  }
]

Here's the next entry for you.
Need fold over parental (CHO WT) of TfR13 (mouse hybridoma antibody) (antibody, V domains shown, mouse IgG in hybridoma supernatant) VH: DVKLVESGGGLVKPGGSLKLSCAASGFTFSSYTMSWVRQTPEKRLEWVATISSGGSYTYFPDSVKGRFTISRDNAKNTLYLQMSSLKSEDTAIYYCTRAHYYAYDYWGQGTTLTVSS VL: DILLTQSPAILSVSPGERVSFSCRASQSIGTSIHWYQQRTNGSPRLLIKYASGSISGIPSRFSGSGSGTDFTLSINSVESEDIADYYCQQSNSWPTSTFGAGTKLELK , thanks.
1

Cited source: patent US20250270339A1
